Please go through the items and note down their TGI.
tested on: A549 NSCLC; assay: NCI tumour cell line growth inhibition, 48 h

Problem: For COC(=O)C1=C(C(=O)OC)SC(=C2c3ccsc3-c3sccc32)S1 , what is its reported TGI?
Solution: > 100 µM

Problem: Entry under review: CC1=C2C(=O)C3[C@@H](CCC4=CC(=O)CC[C@@]43C)C2CC[C@]12O[C@@H]1C[C@H](C)CN[C@H]1[C@H]2C (stereo partly drawn) . Reported TGI?
Solution: > 100 µM

Problem: Requested field: TGI. Item: COc1cc(-c2cc(/C=C/C(=O)c3ccc4c(c3)OCO4)[nH]n2)cc(OC)c1OC
Solution: > 100 µM

Taken from PubChem BioAssay (NCI).
